Test protocol: Aqueous solubility of the compound
Format: physicochemical
Result type: solubility (µM)
One number for each entry, in µM.

Noted for COc1ccc([C@H]2[C@H](c3cc(OC)c(OC)c(OC)c3)C(C)=NN2C(C)=O)cc1O (relative stereo) : its solubility reads 372
